- TEST METHOD NOTES: Xamoterol concentration in plasma and brain after s.c. injection
- Format: in vivo
- CONDITION NOTES: C57Bl/6, mouse, brain, sc; mice, 3 mg/kg s.c., 30 minutes; read-out: Brain
READOUT LABEL: concentration at 30 min (ng/mL)
One number for each entry, in ng/mL.

input: Look up and state reported concentration at 30 min for O=C(NCCNCC(O)COc1ccc(O)cc1)N1CCOCC1 (racemic) [xamoterol]
output: 168

====

- TEST METHOD NOTES: Xamoterol concentration in plasma and brain after s.c. injection
- Format: in vivo
- CONDITION NOTES: C57Bl/6, mouse, brain, sc; mice, 3 mg/kg s.c., 1 hour; read-out: Brain
- Experimental: Mice are euthanized at 3, 15, 30, 60, 120, 240 and 360 minutes after drug administration. Blood is drawn by cardiac puncture and collected in heparinized tubes. Plasma is immediately separated by centrifugation and stored at −80° C. until assay. For tissue distribution studies, tissue samples from the brain, heart, kidney, liver and spleen are collected 60 and 120 minutes after drug administration. The tissue samples are homogenized using 0.9% saline at a ratio of 1:2. […]
READOUT LABEL: concentration at 1 h (ng/mL)
Numbers only, in ng/mL.

input: Look up and state reported concentration at 1 h for O=C(NCCNCC(O)COc1ccc(O)cc1)N1CCOCC1 (racemic)
output: 116

Origin of values: patent US9849134B2
